Values from patent US12559496B2

Target: IL-17A(FLAG-Tagged): IL-17RA(His-Tagged) (Homo sapiens, UniProt Q16552, K93Q)
Sequence (Q16552 with tags, fused parts or gaps K93Q): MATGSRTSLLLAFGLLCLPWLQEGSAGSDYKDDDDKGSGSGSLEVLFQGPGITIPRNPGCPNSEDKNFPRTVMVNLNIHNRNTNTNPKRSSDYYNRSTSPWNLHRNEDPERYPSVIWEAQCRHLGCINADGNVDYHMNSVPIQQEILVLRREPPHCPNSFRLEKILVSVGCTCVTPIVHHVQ
Assay: IL-17A(FLAG-Tagged): IL-17RA(His-Tagged) Binding Disruption Eu-HTRF Assay
Details: disruption of IL-17A/IL-17RA binding; simple average if tested more than once
From the text: IL-17A(FLAG-Tagged): IL-17RA(His-Tagged) Binding Disruption Eu-HTRF Assay An antibody directed against the FLAG tag of IL-17A (SEQ ID NO: 1) is labeled with the HTRF donor chromophore (Europium-cryptate). […] The fluorescence-resonance energy transfer (FRET) depends on the vicinity of the donor chromophore to the acceptor, and interruption of the binding between the IL-17A and IL-17RA causes the reduction/loss of FRET. […]
Readout name: pIC50
// returns pIC50 (minus log10 of molar concentration), number only

Below: 4 compounds and their reported pIC50.
- CC(CC(=O)N[C@H](c1ccn2cc([C@@H](NC(=O)c3conc3CCC(F)(F)F)C3CCC(F)(F)CC3)nc2n1)C1CC1)C(F)(F)F (single isomer, unassigned) [Example 7]: 6.28
- O=C(CC1CC(F)(F)C1)N[C@@H](c1ccn2cc([C@@H](NC(=O)c3conc3CCC(F)(F)F)C3CCC(F)(F)CC3)nc2n1)C1CC1 [Example 26]: 6.89
- CC(CC(=O)N[C@H](c1ccn2cc([C@@H](NC(=O)c3conc3C3CC3)C3CCC(F)(F)CC3)nc2n1)C1CC1)C(F)(F)F (single isomer, unassigned) [Example 10]: 5.39
- O=C(CCC(F)(F)F)NC(c1ccn2cc([C@@H](NC(=O)c3ccn(CCC(F)(F)F)n3)C3CCC(F)(F)CC3)nc2n1)C1CC1 (single isomer, unassigned) [Example 42]: 6.32

Now let's try a different one.
Exercise: Can you share its pIC50? I mean this compound: O=C(CCC(F)(F)F)NC(c1ccn2cc([C@@H](NC(=O)c3cnnn3CCC(F)(F)F)C3CCC(F)(F)CC3)nc2n1)C1CC1 (single isomer, unassigned) [Example 2]
Solution: 5.43

###

# maps each entry to its pIC50
target: IL-17A(FLAG-Tagged): IL-17RA(His-Tagged) (Homo sapiens, UniProt Q16552, K93Q); experiment: IL-17A(FLAG-Tagged): IL-17RA(His-Tagged) Binding Disruption Eu-HTRF Assay; settings: disruption of IL-17A/IL-17RA binding; simple average if tested more than once
// returns pIC50 (minus log10 of molar concentration), number only

- O=C(CCC(F)(F)F)NC(c1ccn2cc([C@@H](NC(=O)c3cnn(CCC(F)(F)F)c3)C3CCC(F)(F)CC3)nc2n1)C1CC1 (stereo in doubt) [Example 50]: 5.17
- O=C(CCC(F)(F)F)NC(c1ccn2cc([C@@H](NC(=O)c3cnn(CCC(F)(F)F)n3)C3CCC(F)(F)CC3)nc2n1)C1CC1 (single isomer, unassigned) [Example 41]: 5.62
- CC(CC(=O)N[C@H](c1ccn2cc([C@@H](NC(=O)c3conc3C3CC3)C3CCC(F)(F)CC3)nc2n1)C1CC1)C(F)(F)F (single isomer, unassigned) [Example 9]: 5.74
- CC(CC(=O)N[C@@H](c1ccn2cc([C@@H](NC(=O)[C@H]3C[C@@H]3C(F)(F)F)C3CCC(F)(F)CC3)nc2n1)C1CC1)C(F)(F)F (single isomer, unassigned) [Example 6]: 5.57

Now let's try a different one.
Exercise: Can you share its pIC50? I mean this compound: O=C(CCC(F)(F)F)N[C@@H](c1ccn2cc([C@@H](NC(=O)c3ncnn3CC3CC3)C3CCC(F)(F)CC3)nc2n1)C1CC1 [Example 32]
Solution: 6.77
